Origin of the recorded values: the kinase profiling compilation of Christmann-Franck et al. (2016)

# system-name: MYLK (human) (UniProt Q15746)
# Sequence (Q15746 whole entry, looked up): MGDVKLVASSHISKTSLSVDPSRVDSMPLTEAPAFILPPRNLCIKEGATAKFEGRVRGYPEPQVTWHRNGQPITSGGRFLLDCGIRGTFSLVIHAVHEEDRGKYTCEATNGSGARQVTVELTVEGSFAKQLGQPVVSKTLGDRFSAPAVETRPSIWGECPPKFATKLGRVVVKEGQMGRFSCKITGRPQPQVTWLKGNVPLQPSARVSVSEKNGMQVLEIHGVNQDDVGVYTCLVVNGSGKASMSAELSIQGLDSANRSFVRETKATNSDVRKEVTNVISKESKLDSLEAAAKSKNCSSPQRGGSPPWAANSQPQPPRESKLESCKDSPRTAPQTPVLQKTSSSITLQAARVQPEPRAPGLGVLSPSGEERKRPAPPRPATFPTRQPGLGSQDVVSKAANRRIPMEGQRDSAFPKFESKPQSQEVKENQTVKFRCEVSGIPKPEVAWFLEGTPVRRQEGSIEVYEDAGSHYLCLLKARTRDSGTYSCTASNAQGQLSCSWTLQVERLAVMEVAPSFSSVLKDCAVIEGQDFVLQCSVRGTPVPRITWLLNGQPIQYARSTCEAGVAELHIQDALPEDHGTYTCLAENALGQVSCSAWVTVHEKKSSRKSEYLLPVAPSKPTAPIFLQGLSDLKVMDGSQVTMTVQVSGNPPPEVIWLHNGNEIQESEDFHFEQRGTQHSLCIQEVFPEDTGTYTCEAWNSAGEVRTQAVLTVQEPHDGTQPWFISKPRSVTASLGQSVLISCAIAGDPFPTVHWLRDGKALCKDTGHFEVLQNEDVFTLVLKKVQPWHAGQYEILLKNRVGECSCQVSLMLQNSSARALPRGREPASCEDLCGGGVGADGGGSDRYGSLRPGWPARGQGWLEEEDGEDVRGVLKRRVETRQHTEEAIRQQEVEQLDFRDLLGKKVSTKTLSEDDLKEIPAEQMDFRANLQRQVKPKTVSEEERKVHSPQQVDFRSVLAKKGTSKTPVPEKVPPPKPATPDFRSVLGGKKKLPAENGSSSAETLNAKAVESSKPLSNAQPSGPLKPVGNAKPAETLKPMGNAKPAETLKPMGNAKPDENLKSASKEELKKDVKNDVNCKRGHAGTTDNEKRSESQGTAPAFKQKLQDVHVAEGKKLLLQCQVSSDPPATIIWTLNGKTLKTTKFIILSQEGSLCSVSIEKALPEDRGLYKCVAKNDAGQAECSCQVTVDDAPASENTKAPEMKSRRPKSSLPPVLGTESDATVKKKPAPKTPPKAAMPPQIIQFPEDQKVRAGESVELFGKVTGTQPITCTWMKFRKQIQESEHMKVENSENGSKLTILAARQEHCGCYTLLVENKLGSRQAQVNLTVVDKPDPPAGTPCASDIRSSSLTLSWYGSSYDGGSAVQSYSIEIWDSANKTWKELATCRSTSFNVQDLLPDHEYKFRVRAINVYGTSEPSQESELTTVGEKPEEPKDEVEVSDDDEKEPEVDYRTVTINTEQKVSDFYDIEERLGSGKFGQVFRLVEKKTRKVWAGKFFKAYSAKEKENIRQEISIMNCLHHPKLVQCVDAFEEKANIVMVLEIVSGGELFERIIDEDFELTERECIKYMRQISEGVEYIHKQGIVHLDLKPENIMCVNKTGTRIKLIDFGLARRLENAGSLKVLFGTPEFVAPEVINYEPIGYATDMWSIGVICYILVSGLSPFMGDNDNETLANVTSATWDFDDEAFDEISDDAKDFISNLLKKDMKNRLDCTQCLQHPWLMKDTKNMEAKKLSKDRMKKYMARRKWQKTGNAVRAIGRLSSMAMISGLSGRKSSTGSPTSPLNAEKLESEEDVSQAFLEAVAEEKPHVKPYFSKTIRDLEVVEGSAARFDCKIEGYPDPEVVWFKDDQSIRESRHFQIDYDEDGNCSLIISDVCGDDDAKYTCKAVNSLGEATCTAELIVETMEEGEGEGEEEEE
# assay-text: radiometric filter-binding kinase assay
assay-metric: IC50 (µM)
Quick note: give the figure in µM, leave out the unit.

Look up IC50 for this molecule: COc1cc(C(=O)N2CCC(N3CCN(C)CC3)CC2)ccc1Nc1ncc2c(n1)N(C)c1ccccc1C(=O)N2C 12.2

====

# system-name: AURKA (human)
# assay-text: SelectScreen, TR FRET
assay-metric: IC50 (nM)
Quick note: give the figure in nM, leave out the unit.

Look up IC50 for this compound: COc1cc(C(=O)N2CCC(N3CCN(C)CC3)CC2)ccc1Nc1ncc2c(n1)N(C)c1ccccc1C(=O)N2C 870
